The measured values listed here are drawn from PubChem BioAssay (NCI).

// reported TGI for each item listed
- System: PC-3 prostate
- assay.procedure: NCI tumour cell line growth inhibition, 48 h

compound: CCN1C/C(=C\c2ccc(Cl)cc2)C2=NN(c3ccccc3)C(c3ccc(Cl)cc3)C2C1 (stereo unspecified)
endpoint.unit: µM
qualifier.sign: >
TGI: 100

compound: Clc1ccc(-c2nc(-c3ccc(Cl)cc3)[s+]s2)cc1
endpoint.unit: µM
qualifier.sign: >
TGI: 100

compound: NC(N)=NNC(=O)C(=O)O
endpoint.unit: µM
qualifier.sign: >
TGI: 100

compound: O=C1Cc2c(-c3ccccc3)cc(-c3cccc(Cl)c3)nc2-c2ccccc2N1
endpoint.unit: µM
qualifier.sign: =
TGI: 23.2

compound: Brc1ccc2c(c1)C1=C(CO2)Cc2ccccc2O1
endpoint.unit: µM
qualifier.sign: =
TGI: 32.9

compound: O=[N+]([O-])/C=C\c1ccc2c(c1)OCO2
endpoint.unit: µM
qualifier.sign: =
TGI: 7.34

====

- System: RXF 393 renal
Classes used: T for active, F for inactive

compound: O=C1C=C(c2cc(Br)c(O)c(Br)c2)/C(=C/c2cc(Br)c(O)c(Br)c2)O1
group: F
//
compound: C=C(CNCCO)[C@@H]1CC[C@]2(CO)CC[C@]3(C)[C@H](CC[C@@H]4[C@@]5(C)CCC(NCCc6ccc(O)cc6)C(C)(C)[C@@H]5CC[C@]43C)[C@@H]12 (stereo partly specified)
group: F
//
compound: O=C1NC(=O)C(c2ccccc2Cl)=C1Nc1cccc(O)c1
group: F
//
compound: CCOC(=O)/C(C1=CC(=O)C(=O)c2ccccc21)=C(/C)NCc1ccccc1
group: T
//
compound: O=c1c(OC/C(=N/O)c2ccccc2)c(-c2ccccc2)oc2ccccc12
group: F
//
compound: C=C1C(O)C2C(=C(CC(C)C)C13CC3)C(=O)C(C)(C)C2OC (stereo unspecified)
group: F
//
compound: Cc1ccc(S(=O)(=O)NCCN2c3nc4ccccc4cc3Sc3cc4ccccc4nc32)cc1
group: F
//
compound: CC/C=C\C[C@H](O)C/C=C1/C(=O)C=C[C@@H]1C/C=C\CCCC(N)=O
group: F
//
compound: OCC1OC(N2C=C(c3nc4ccccc4s3)C3C=CC=CC32)C(O)C1O (stereo unspecified)
group: F
//
compound: O=[N+]([O-])/C=C\c1ccc2c(c1)OCO2
group: F
//
compound: Cc1cc(O)cc(C)c1/C=C/c1cncc(C(=O)N(C)C)c1
group: F

====

- Tested on: PC-3 prostate
- assay.procedure: NCI tumour cell line growth inhibition, 48 h
// reported TGI for each item listed

compound: COc1cccc2c(=O)c3c(sc12)c(NCCCN)nc1ccccc13
target.or.system: PC-3 prostate
TGI: 3.14 µM
--
compound: O=S(=O)(O)c1ccc2cc(N=Nc3cc(S(=O)(=O)O)c4cccnc4c3O)ccc2c1
target.or.system: PC-3 prostate
TGI: > 100 µM
--
compound: CC1(C)N=C(N)N=C(N)N1c1cccc(CSc2ccccc2)c1
target.or.system: PC-3 prostate
TGI: > 100 µM
--
compound: Cc1nc2ccccc2n1CCc1nc2ccccc2s1
target.or.system: PC-3 prostate
TGI: > 100 µM
--
compound: CCCCS(=N)(=O)CC[C@H](N)C(=O)O (some centres undefined)
target.or.system: PC-3 prostate
TGI: > 10000 µM
--
compound: CC(=O)Nc1ccc(Nc2nc(=O)[nH]c(=O)[nH]2)cc1
target.or.system: PC-3 prostate
TGI: > 100 µM
--
compound: COc1cc(C2c3cc4c(cc3OC(N3CCOCC3)C2C)OCO4)cc(OC)c1O (centres undefined)
target.or.system: PC-3 prostate
TGI: > 86.2 µM
--
compound: NC(=O)c1ccccc1NC(=O)C(=O)C(c1cnc2ccc([N+](=O)[O-])cc2n1)[N+](=O)[O-] (centres undefined)
target.or.system: PC-3 prostate
TGI: > 100 µM
--
compound: OC1CCC(C2C3CCCCC3C3CCCCC3C2C2CCC(O)CC2)CC1 (centres undefined)
target.or.system: PC-3 prostate
TGI: > 100 µM
--
compound: COc1cc2[nH]c(-c3ccccc3)cc(=O)c2cc1OC
target.or.system: PC-3 prostate
TGI: > 100 µM
--
compound: Cc1nn(-c2ccccc2)c(C)c1/C=N/NC(=O)c1sc(=S)n(-c2ccccc2)c1N
target.or.system: PC-3 prostate
TGI: > 100 µM
--
compound: CC[C@H]1C=CCC[C@@]2(C[C@@H]3CC[C@@H]4[C@H](C(=O)OCCCCCCCCCCCCCCCC(=O)N(CCCN)C[C@@H](O)CCN)[C@]5(CCC[C@@H](C)O5)NC(=[N+]34)N2)O1
target.or.system: PC-3 prostate
TGI: 1.96 µM
--
compound: CCC(=O)N1C/C(=C/c2ccc(OC)cc2)C(=O)/C(=C/c2ccc(OC)cc2)C1
target.or.system: PC-3 prostate
TGI: 7.94 µM
--
compound: C=C[C@H]1CN2CC[C@H]1C[C@@H]2[C@@H](O)c1ccnc2ccccc12
target.or.system: PC-3 prostate
TGI: > 100 µM
